molecular target: Thromboxane-A synthase (Homo sapiens, UniProt P24557); experiment: In vitro Inhibition of thromboxane synthase from human blood platelet microsomes
Sequence (P24557 whole entry): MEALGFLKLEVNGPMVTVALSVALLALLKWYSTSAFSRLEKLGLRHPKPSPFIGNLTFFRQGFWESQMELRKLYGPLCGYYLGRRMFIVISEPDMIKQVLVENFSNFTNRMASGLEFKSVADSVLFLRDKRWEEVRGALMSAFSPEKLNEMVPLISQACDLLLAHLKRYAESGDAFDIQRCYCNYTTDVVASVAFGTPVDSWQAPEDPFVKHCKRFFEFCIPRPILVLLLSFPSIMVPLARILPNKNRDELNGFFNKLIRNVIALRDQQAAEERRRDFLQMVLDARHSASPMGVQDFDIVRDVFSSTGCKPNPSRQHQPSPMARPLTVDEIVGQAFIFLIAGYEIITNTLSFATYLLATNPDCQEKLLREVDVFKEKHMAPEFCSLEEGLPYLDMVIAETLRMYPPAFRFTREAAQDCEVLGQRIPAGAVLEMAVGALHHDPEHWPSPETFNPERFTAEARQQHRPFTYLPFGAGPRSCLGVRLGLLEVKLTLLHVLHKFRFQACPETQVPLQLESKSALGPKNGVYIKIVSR
Kindly supply the reported IC50 values for the records listed here.

Worked cases, IC50 given:
CC(C)(Cc1ccc(F)cc1C#N)C1OCC(C/C=C\CCC(=O)O)C(c2cccnc2)O1 (centres undefined)    < 10 nM
CC(C)(Oc1ccc(Br)cc1)C1OCC(C/C=C\CCC(=O)O)C(c2cccnc2)O1 (stereo in doubt; 7p)    > 10000 nM
CC(=O)c1ccc(OC(C)(C)C2OCC(C/C=C\CCC(=O)O)C(c3cccnc3)O2)c([N+](=O)[O-])c1 (centres undefined)    < 10 nM

[in] # lookup: IC50 of CC(C)(Oc1ccccc1[N+](=O)[O-])C1OCC(C/C=C\CCC(=O)O)C(c2cccnc2)O1 (centres undefined)
[out] < 10 nM

====

Molecular target: Prostacyclin synthase (Homo sapiens)
Sequence (Q16647 whole entry): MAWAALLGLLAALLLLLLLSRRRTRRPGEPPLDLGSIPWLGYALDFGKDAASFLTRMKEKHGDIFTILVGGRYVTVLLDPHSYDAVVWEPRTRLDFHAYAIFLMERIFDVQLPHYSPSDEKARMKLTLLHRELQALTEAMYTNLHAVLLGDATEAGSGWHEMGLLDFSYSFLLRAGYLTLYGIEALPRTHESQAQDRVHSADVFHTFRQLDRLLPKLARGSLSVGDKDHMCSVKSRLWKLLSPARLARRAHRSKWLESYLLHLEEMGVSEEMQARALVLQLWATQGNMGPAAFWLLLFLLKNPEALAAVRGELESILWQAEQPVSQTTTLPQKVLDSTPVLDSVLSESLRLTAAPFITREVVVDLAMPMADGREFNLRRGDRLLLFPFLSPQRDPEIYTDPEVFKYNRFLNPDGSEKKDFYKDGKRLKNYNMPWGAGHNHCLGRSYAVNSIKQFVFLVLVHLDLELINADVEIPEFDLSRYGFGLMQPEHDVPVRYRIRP
Experiment: In vitro inhibition of Prostaglandin I2 synthase in cultured human endothelial cells
Answer each item with its documented pIC50.
Give bare numbers, as −log10 of the molar value.

Please review the entries below; each comes with its answer.
CC(C)(Oc1ccc(F)cc1C#N)C1OCC(C/C=C\CCC(=O)O)C(c2cccnc2)O1 (centres undefined)    4.43
CC(C)(Cc1ccc(F)cc1C#N)C1OCC(C/C=C\CCC(=O)O)C(c2cccnc2)O1 (centres undefined)    5.15
CC(C)(Oc1ccccc1)C1OCC(C/C=C\CCC(=O)O)C(c2cccnc2)O1 (centres undefined)    4.12
CC(C)(Cc1ccccc1C#N)C1OCC(C/C=C\CCC(=O)O)C(c2cccnc2)O1 (centres undefined)    4.85
O=C(O)CC/C=C\CC1COC(c2ccc(Cl)c(Cl)c2)OC1c1cccnc1 (centres undefined)    5.05

API: the following record is the query input.
[in] Field request: pIC50 | item: CC(C)(Oc1ccc(Br)cc1)C1OCC(C/C=C\CCC(=O)O)C(c2cccnc2)O1 (stereo in doubt; 7q)
[out] 5.40

====

Please provide measured IC50 for the entries that follow.
Target: Prostacyclin synthase (Homo sapiens)
Sequence (Q16647 whole entry): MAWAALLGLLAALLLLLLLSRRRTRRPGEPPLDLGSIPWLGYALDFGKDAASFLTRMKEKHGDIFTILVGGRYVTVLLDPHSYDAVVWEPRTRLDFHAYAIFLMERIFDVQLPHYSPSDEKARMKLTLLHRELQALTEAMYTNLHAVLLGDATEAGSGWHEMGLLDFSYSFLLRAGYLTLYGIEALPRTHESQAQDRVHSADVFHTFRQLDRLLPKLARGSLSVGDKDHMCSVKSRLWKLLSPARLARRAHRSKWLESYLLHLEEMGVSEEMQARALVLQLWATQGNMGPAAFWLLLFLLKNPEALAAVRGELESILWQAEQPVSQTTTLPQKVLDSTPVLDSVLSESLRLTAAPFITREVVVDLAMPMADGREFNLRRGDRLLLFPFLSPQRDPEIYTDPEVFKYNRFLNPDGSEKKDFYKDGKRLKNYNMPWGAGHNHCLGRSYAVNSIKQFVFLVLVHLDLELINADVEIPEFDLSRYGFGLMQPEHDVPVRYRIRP
Assay: In vitro inhibition of Prostaglandin I2 synthase in cultured human endothelial cells

Solved cases below.
Cc1ccc(C#N)c(OC(C)(C)C2OCC(C/C=C\CCC(=O)O)C(c3cccnc3)O2)c1 (stereo not drawn)    > 100 µM
CC(C)(Oc1ccccc1F)C1OCC(C/C=C\CCC(=O)O)C(c2cccnc2)O1 (stereo not drawn)    < 1 µM

Now, please, on to the next molecule.
[in] Record request: IC50 value, item O=C(O)CCCC/C=C(\c1ccccc1)c1cccnc1 [(E)-ISBOGREL]
[out] > 100 µM
